Origin of measurements: patent US20240316154A1

target: T1, Mouse serum albumin (mouse, UniProt P07724 25-608); test: SPR, SA on chip, VHH 300 nM, 25 C
T1 construct: bought; immobilised on a CM5 chip by amine coupling; also called Mouse SA
So basically: koff at 0.01 s⁻¹ or higher? That is condition met. Lower than 0.01 s⁻¹? That is condition not met.

VHH moiety 9 (MC6.1C22-R27A) (VHH) VHH: EVQLLESGGGLVQPGGSLRLSCAASGAYIDETAVAWFRQAPGKEREFVAGIGGGVDITYYADSVKGRFTISRDNSKNTLYLQMNSLRPEDTAVYYCAARPGRPLITSKVADLYPYWGQGTLVTVSS :: condition met
VHH moiety 8 (MC6.1C22-G26Y) (VHH) VHH: EVQLLESGGGLVQPGGSLRLSCAASYRYIDETAVAWFRQAPGKEREFVAGIGGGVDITYYADSVKGRFTISRDNSKNTLYLQMNSLRPEDTAVYYCAARPGRPLITSKVADLYPYWGQGTLVTVSS :: condition not met
VHH moiety 19 (MC6.1C22-R102S) (VHH) VHH: EVQLLESGGGLVQPGGSLRLSCAASGRYIDETAVAWFRQAPGKEREFVAGIGGGVDITYYADSVKGRFTISRDNSKNTLYLQMNSLRPEDTAVYYCAARPGSPLITSKVADLYPYWGQGTLVTVSS :: condition met
VHH moiety 39 (MC6.1C90.43) (VHH) VHH: EVQLLESGGGLVQPGGSLRLSCAASGRYIDETAVAWFRQAPGKGREFVAGIGGGVDITYYADSVKGRFTISRDNSKNTLYLQMNSLRPEDTAVYYCGARPGRPLITSKVADLYPYWGQGTLVTVSS :: condition not met
VHH moiety 4 (MC6.1C80.43) (VHH) VHH: EVQLLESGGGLVQPGGSLRLSCAASGRYIDETAVAWFRQAPGKGREFVAGIGGGVDITYYADSVKGRFTISRDNSKNTLYLQMNSLRPEDTAVYYCAARPGRPLITSKVADLYPYWGQGTLVTVSS :: condition not met

## Input Hello, I need to know if VHH moiety 21 (MC6.1C22-P103Q) (VHH) VHH: EVQLLESGGGLVQPGGSLRLSCAASGRYIDETAVAWFRQAPGKEREFVAGIGGGVDITYYADSVKGRFTISRDNSKNTLYLQMNSLRPEDTAVYYCAARPGRQLITSKVADLYPYWGQGTLVTVSS has measured koff not below 0.01 s⁻¹. Thanks!
## Output condition met

## Input Hello, I need to know if VHH moiety 40 (MC6.1C95.43) (VHH) VHH: EVQLLESGGGLVQPGGSLRLSCAASGRYIDETAVAWFRQAPGKGREFVAGIGGGVDITYYADSVKGRFTISRDNSKNTLYLQMNSLRPEDTAVYYCGTRPGRPLITSKVADLYPYWGQGTLVTVSS has measured koff not below 0.01 s⁻¹. Thanks!
## Output condition not met
